testName: Pharmacokinetic studies in CD-1 mice
testContext: Swiss albino CD-1, mouse, whole blood, po, 12.5 mg/kg, C max, fed CD-1 mice, blood, oral gavage 12.5 mg/kg

>  <givenSmiles>
CC[C@H]1OC(=O)[C@H](C)[C@@H](O[C@H]2C[C@@](C)(OC)[C@@H](O)[C@H](C)O2)[C@H](C)[C@@H](O[C@@H]2O[C@H](C)C[C@H](N(C)C)[C@H]2O)[C@](C)(O)C[C@@H](C)CN(CCCNc2ccnc3cc(Cl)ccc23)[C@H](C)[C@@H](O)[C@]1(C)O

>  <Cmax (ng/mL)>
162

$$$$

====

testName: Pharmacokinetic studies in CD-1 mice
testContext: Swiss albino CD-1, mouse, in vivo, 12.5 mg/kg

>  <compound>
CC[C@H]1OC(=O)[C@H](C)[C@@H](O[C@H]2C[C@@](C)(OC)[C@@H](O)[C@H](C)O2)[C@H](C)[C@@H](O[C@@H]2O[C@H](C)C[C@H](N(C)C)[C@H]2O)[C@](C)(O)C[C@@H](C)CN(C)[C@H](C)[C@@H](O)[C@]1(C)O [Azithromycin, reference compound]

>  <half-life (h)>
10.1

$$$$
